The measurements presented in this section are drawn from patent US20070254831A1.

target: T1, soluble human FcRn (human, UniProt P55899 24-297; P61769 21-119, biotinylated (Sulfo-NHS-LC-Biotin) in the ELISA; amine-coupled to CM5 chip in SPR); experiment: ELISA, competitor human IgG
T1 construct: also called shFcRn; biotinylated shFcRn
T1 sequence (P55899 24-297 limits assumed, chain 1 of 2): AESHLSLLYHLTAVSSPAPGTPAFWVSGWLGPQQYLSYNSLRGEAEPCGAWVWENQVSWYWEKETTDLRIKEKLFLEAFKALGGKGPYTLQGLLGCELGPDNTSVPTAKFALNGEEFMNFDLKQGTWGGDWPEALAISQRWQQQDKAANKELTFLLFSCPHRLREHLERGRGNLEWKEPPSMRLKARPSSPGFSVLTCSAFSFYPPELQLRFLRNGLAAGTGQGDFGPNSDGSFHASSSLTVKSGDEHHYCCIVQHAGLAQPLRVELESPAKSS
T1 sequence (P61769 21-119 limits assumed, chain 2 of 2): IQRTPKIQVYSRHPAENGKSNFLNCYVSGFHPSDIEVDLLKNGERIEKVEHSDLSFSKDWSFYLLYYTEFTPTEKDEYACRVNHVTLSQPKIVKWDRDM
Square brackets hold non-standard residues; d marks the D form. Ends that are not written are not given here.
The reader will find reported IC50 values listed item by item below.
Just the number in µM, nothing appended.

binder	output-unit	measured-number
QRFVTGHFG[dP]YYPANGP-NH2 (N-terminus assumed; SMILES CC(C)[C@H](NC(=O)[C@H](Cc1ccccc1)NC(=O)[C@H](CCCNC(=N)N)NC(=O)[C@@H](N)CCC(N)=O)C(=O)N[C@H](C(=O)NCC(=O)N[C@@H](Cc1c[nH]cn1)C(=O)N[C@@H](Cc1ccccc1)C(=O)NCC(=O)N1CCC[C@@H]1C(=O)N[C@@H](Cc1ccc(O)cc1)C(=O)N[C@@H](Cc1ccc(O)cc1)C(=O)N1CCC[C@H]1C(=O)N[C@@H](C)C(=O)N[C@@H](CC(N)=O)C(=O)NCC(=O)N1CCC[C@H]1C(N)=O)[C@@H](C)O) [Peptide No. 176]	µM	230

Next up:
Which IC50 is listed for RFVTGHFG[dP]WYPANGP-NH2 (N-terminus assumed; SMILES CC(C)[C@H](NC(=O)[C@H](Cc1ccccc1)NC(=O)[C@@H](N)CCCNC(=N)N)C(=O)N[C@H](C(=O)NCC(=O)N[C@@H](Cc1c[nH]cn1)C(=O)N[C@@H](Cc1ccccc1)C(=O)NCC(=O)N1CCC[C@@H]1C(=O)N[C@@H](Cc1c[nH]c2ccccc12)C(=O)N[C@@H](Cc1ccc(O)cc1)C(=O)N1CCC[C@H]1C(=O)N[C@@H](C)C(=O)N[C@@H](CC(N)=O)C(=O)NCC(=O)N1CCC[C@H]1C(N)=O)[C@@H](C)O) [Peptide No. 210] ?
100
